system: MDA-MB-231 breast; test: NCI tumour cell line growth inhibition, 48 h
Label Criterion met when TGI is at or above 30 µM; otherwise label Criterion not met.

| MOLECULE | LABEL VALUE |
| --- | --- |
| COc1ccc(-c2nn(-c3cccc(NC(=O)c4ccc5c(c4)OCCO5)c3)cc2-c2ccncc2)cc1Cl | Criterion not met |
| CO/N=C(\C)c1cccc(Nc2cc(-c3ccccc3)nc3c(O)cccc23)c1 | Criterion not met |
| CC(=O)Nc1ccc(CNc2cc(=O)n(C)c(=O)[nH]2)cc1 | Criterion met |
| O=C(c1ccc2ccccc2c1)N(Cc1cccnc1)C(=S)N(Cc1cccnc1)C(=O)c1ccc2ccccc2c1 | Criterion met |
| C/C(=C\C1=C(Cl)C(=O)c2ccccc2C1=O)C(=O)O | Criterion met |
| COc1ccc(N=C2C(=Nc3ccc(OC)cc3)N(S(=O)(=O)c3ccccc3)C(=S)N2c2ccccc2)cc1 | Criterion met |
| CN1C(=O)N/C(=C\c2ccc(S(=O)(=O)N/N=C\C(O)C(O)C(O)CO)cc2)C1=O (configuration not stated) | Criterion met |
| O=C(CCCN1CCC2(CC1)NC(=O)c1ccccc1O2)c1ccc(F)cc1 | Criterion met |
| O=c1cc(N2CCNCC2)oc2c(-c3ccccc3)cccc12 | Criterion met |
| O=C(Nc1ccc(Cl)cc1F)c1cc(I)ccc1O | Criterion not met |
| CC(C)(C#N)c1cc(F)cc(C(=O)Nc2cc(Nc3ncccc3-c3ncnc4nc[nH]c34)ccc2F)c1 | Criterion not met |
| Cc1nc2ccccc2c(=O)n1NC(=O)c1ccc([N+](=O)[O-])cc1 | Criterion met |
| CN(C)c1ccc(/C=C2\N=C(c3ccc([N+](=O)[O-])cc3)OC2=O)cc1 | Criterion met |
| CCOC(=O)N(c1ccccc1)c1cc(=O)n2ccccc2n1 | Criterion met |
| Oc1c(CN2CCCC2)cc(COCc2ccc(Br)cc2)c2cccnc12 | Criterion not met |

###

test system: MDA-N; assay: NCI tumour cell line growth inhibition, 48 h
Where a SMILES comes first, the peptide text is derived from it. The star is where a group is joined. Pentanoyl = CCCCC(=O)*; Boc = CC(C)(C)OC(=O)*
ENDPOINT: TGI

| COMPOUND | VALUE MEASURED |
| --- | --- |
| N=c1nc2n(cc1F)[C@@H]1O[C@H](CO)[C@@H](O)[C@@H]1O2 | > 100 µM |
| CC(=O)OC(C)c1cc2c(s1)C(=O)c1scc(C(C)OC(C)=O)c1C2=O (stereo not drawn) | 0.256 µM |
| CCCCC(=O)Oc1ccc(CC(NC(=O)OC(C)(C)C)C(=O)NC(C)C(=O)NC(Cc2ccccc2)C(=O)NCC(N)=O)cc1 (stereo not drawn) (Boc-Y(Pentanoyl)AFG-NH2; configuration not given here) | 65.8 µM |

###

As shown below, each of these compounds has a reported TGI value.
tested on: UACC-62 melanoma; test: NCI tumour cell line growth inhibition, 48 h

| COMPOUND | TGI |
| --- | --- |
| COc1ccc(C(=O)C(C(=O)C(=O)Nc2ccc(Cl)c(Cl)c2)c2ccc(OC)cc2)cc1 (stereo not given) | > 100 µM |
| CC(C)OC(=O)C1=C(O)c2ccccc2S(=O)(=O)N1 | > 100 µM |
| COC(=O)[C@]12CSC[C@H]1C[C@H](c1ccccc1OC)N2 | > 100 µM |
| O=C1CCCC/C1=C1\C(=O)Nc2cc(F)ccc21 | > 100 µM |
| CCOC(=O)Nc1cc2c(c(N)n1)N=C(c1ccccc1)[C@H](C)N2 | 21.2 µM |

###

tested on: MALME-3M melanoma; test: NCI tumour cell line growth inhibition, 48 h

| COMPOUND | READOUT RELATION | TGI (µM) |
| --- | --- | --- |
| CCCCCC(=O)Nc1nc[nH]c1C(N)=O | > | 100 |
| COc1ccc(-c2nn(-c3cccc(NC(=O)c4ccc5c(c4)OCCO5)c3)cc2-c2ccncc2)cc1Cl | = | 6.72 |
| O=C(c1ccc2ccccc2c1)N(Cc1cccnc1)C(=S)N(Cc1cccnc1)C(=O)c1ccc2ccccc2c1 | > | 100 |
| O=C(O)c1ccc([N+]2=Cn3c(nc4ccccc43)C2)cc1 | = | 3.05 |
| O=C(CCCN1CCOCC1)Nc1ccc(Cn2nnc3c2C(=O)c2nnn(Cc4ccc(NC(=O)CCCN5CCOCC5)cc4)c2C3=O)cc1 | = | 2.79 |
| CCOC(=O)C1=C(C)OC(=O)[C@@]2(OC)C=C(Cl)[C@@]12C | > | 100 |
| COC(=O)[C@]12CSC[C@H]1C[C@H](c1ccccc1OC)N2 | > | 100 |
| CN(C)CCNC(=O)Cn1cc([N+](=O)[O-])c(=O)c2ccccc21 | > | 100 |
| CC(=O)O[C@H]1CC[C@@]2(C)C(=CC[C@@H]3[C@@H]2CC[C@]2(C)Nc4c(cnn4S(C)(=O)=O)C[C@@H]32)C1 | > | 100 |
| CC(=O)Nc1sc([N+](=O)[O-])cc1S(=O)(=O)c1ccc(Cl)cc1 | = | 15.3 |
| CCCC[N+](CCCC)=c1ccc2nc3c(C)cc(N(CC)CC)cc3sc-2c1 | = | 0.429 |
| C/C1=C/C2=CC(C)C[C@@H]2C(=O)[C@]2(C)C(=O)CC(C)(C)[C@H]2CC1=O (some centres not stated) | > | 50 |
| CC1(C)CCc2cc3c(cc2O1)OCC1c2cc4c(cc2OC31)OCO4 (configuration not stated) | > | 100 |
| C1=Nc2sc3c(c2C2=NCCN12)CCCC3 | = | 32.9 |
| CCSC1(SCC)CC(Cc2ccc(OC)cc2)N(C=NC(C)(C)C)C1 (configuration not stated) | = | 37.5 |
| O=[As](O)(O)c1ccc(N=Nc2ccc([As](=O)(O)O)cc2)cc1 | > | 100 |
| C=C1CC[C@@H](Br)C(C)(C)[C@]12CCC(C)(O)C(Cl)C2 (some centres not stated) | = | 86.2 |
| CC(=O)OC[C@@H]1[C@H]2CC[C@]3(C)[C@@H](OC(C)=O)CC[C@H]3[C@@H]2CC[C@H]1C1(C)SCCS1 | > | 25 |
| O=C1c2ccccc2-c2c1c(-c1ccc([N+](=O)[O-])cc1)nc1ccc3ccccc3c21 | > | 100 |
| CC(=O)c1c(C)n(C)c2c1nnc1ccccc12 | > | 100 |
| CN(Cc1cnc2nc(N)nc(N)c2n1)c1ccc(C(=O)NCS(=O)(=O)O)cc1 | > | 100 |
| Cc1cc2c(cc1C)[n+](=O)c(C#N)c(Cl)n2[O-] | = | 30 |

###

As shown below, each of these compounds has a reported TGI value.
tested on: CCRF-CEM leukemia; experiment: NCI tumour cell line growth inhibition, 48 h

| COMPOUND | READOUT RELATION | TGI [µM] |
| --- | --- | --- |
| COC1CCC(O)C(/C=C/[N+](=O)[O-])C1 (stereo unspecified) | > | 100 |
| C[C@@H]1CC[C@@H]2[C@@H]1[C@H](OC(=O)/C=C/c1ccccc1)[C@]1(C3CCCCC3)C[C@@H](NC(=O)CO)[C@@]2(C)O1 | = | 45.2 |
| CO/N=C(\C)c1cccc(Nc2cc(-c3ccccc3)nc3c(O)cccc23)c1 | = | 8.74 |
| CN(C)CCNC(=O)Cn1cc([N+](=O)[O-])c(=O)c2ccccc21 | > | 100 |
| O=C1c2ccccc2C(=Cc2ccccc2)c2ccccc21 | = | 29 |
| CCC1(CCSC(=N)N)C(=O)NC(=O)NC1=O | > | 100 |

###

tested on: LOX IMVI melanoma; test: NCI tumour cell line growth inhibition, 48 h
Where a SMILES comes first, the peptide text is derived from it. The star is where a group is joined. Pentanoyl = CCCCC(=O)*; Boc = CC(C)(C)OC(=O)*
ENDPOINT: TGI

| COMPOUND | TESTED ON | ENDPOINT | VALUE MEASURED |
| --- | --- | --- | --- |
| O=C(N/C(=C\c1cccc([N+](=O)[O-])c1)c1nc2[nH]c(=S)[nH]c(=O)c2[nH]1)c1ccccc1 | LOX IMVI melanoma | TGI | > 100 µM |
| N#Cc1nc(COCc2ccccc2)oc1N | LOX IMVI melanoma | TGI | > 100 µM |
| COc1cccc2c1-c1c(c3ccc([N+](=O)[O-])cc3c(=O)n1CCCCl)C2=O | LOX IMVI melanoma | TGI | > 50 µM |
| O=c1c2ccccc2n2n1CC(O)C2 (centres undefined) | LOX IMVI melanoma | TGI | > 100 µM |
| N#Cc1c(NCCc2ccc(F)cc2)c2ccccc2n2c1nc1ccccc12 | LOX IMVI melanoma | TGI | > 100 µM |
| COc1ccc(N=Nc2c(-c3ccccc3)nn(C(=O)CC(=O)Nc3cccc(Cl)c3)c2-c2ccccc2)cc1 | LOX IMVI melanoma | TGI | > 100 µM |
| Cc1ccc(C)c(NC(=O)NCc2ccc(Cl)cc2)c1 | LOX IMVI melanoma | TGI | > 100 µM |
| CCOC(=O)CC1(O)CCCCC1(Sc1ccc(C)cc1)Sc1ccc(C)cc1 (centres undefined) | LOX IMVI melanoma | TGI | > 100 µM |
| Cc1nc2ccccc2c(=O)n1NC(=O)c1ccc([N+](=O)[O-])cc1 | LOX IMVI melanoma | TGI | > 100 µM |
| O=[N+]([O-])c1ccc2c(c1)Nc1c3ccccc3nc3cccc-2c13 | LOX IMVI melanoma | TGI | 6.67 µM |
| O=[As](O)(O)c1ccc(N=Nc2ccc([As](=O)(O)O)cc2)cc1 | LOX IMVI melanoma | TGI | > 100 µM |
| Cc1ccc(Nc2n[nH]c(=S)s2)cc1 | LOX IMVI melanoma | TGI | > 100 µM |
| O=C1C2=Nc3ccccc3C(O)N2c2ccccc21 (centres undefined) | LOX IMVI melanoma | TGI | 13.1 µM |
| CCCCC(=O)Oc1ccc(CC(NC(=O)OC(C)(C)C)C(=O)NC(C)C(=O)NC(Cc2ccccc2)C(=O)NCC(N)=O)cc1 (centres undefined) (Boc-Y(Pentanoyl)AFG-NH2; configuration not given here) | LOX IMVI melanoma | TGI | 30.7 µM |
| O=C(CCl)NC(Cc1ccc(F)cc1)C(=O)O (centres undefined) | LOX IMVI melanoma | TGI | > 100 µM |
| O=S(=O)(O)c1ccc(-c2nnc(-c3ccccn3)nc2-c2ccc(S(=O)(=O)O)o2)o1 | LOX IMVI melanoma | TGI | > 100 µM |
| CCC1(CCSC(=N)N)C(=O)NC(=O)NC1=O | LOX IMVI melanoma | TGI | > 100 µM |
| COc1ccc(C(=O)C(C(=O)C(=O)Nc2ccc(Cl)c(Cl)c2)c2ccc(OC)cc2)cc1 (centres undefined) | LOX IMVI melanoma | TGI | > 100 µM |
| O=C(c1cc2ccccc2o1)N(Cc1ccccc1)c1ccccc1 | LOX IMVI melanoma | TGI | 39 µM |
| CC1CCN(CCCCCOc2ccc3oc4cc(Cl)ccc4c(=O)c3c2)CC1 | LOX IMVI melanoma | TGI | 10.9 µM |
| O=C(O)Cc1cccc2c1Oc1ccccc1S2 | LOX IMVI melanoma | TGI | > 100 µM |
| COC(=O)C1C(OC(=O)C(Cl)(c2ccccc2)c2ccccc2)CC2CCC1N2C (centres undefined) | LOX IMVI melanoma | TGI | > 100 µM |
| CN1C(=O)N/C(=C\c2ccc(S(=O)(=O)N/N=C\C(O)C(O)C(O)CO)cc2)C1=O (centres undefined) | LOX IMVI melanoma | TGI | > 100 µM |
| Nc1nncc2c1ccn2C1OC(CO)C(O)C1O (centres undefined) | LOX IMVI melanoma | TGI | > 100 µM |
| c1ccc(-c2cc(C3CO3)c3ccccc3n2)cc1 (centres undefined) | LOX IMVI melanoma | TGI | 34.1 µM |
| COCc1cc2c(cc1/C(=C/[N+](=O)[O-])CS(=O)(=O)c1ccccc1)OCO2 | LOX IMVI melanoma | TGI | > 100 µM |
| Cc1cc2c(cc1C)[n+](=O)c(C#N)c(Cl)n2[O-] | LOX IMVI melanoma | TGI | 39.2 µM |
| Cc1cnc(/C=N\NC(N)=S)c2cccc(N)c12 | LOX IMVI melanoma | TGI | > 100 µM |
| CN(C)c1ccc(/C=C2\N=C(c3ccc([N+](=O)[O-])cc3)OC2=O)cc1 | LOX IMVI melanoma | TGI | 61.2 µM |
| COc1cc(N/N=C/C#N)cc(OC)c1OC | LOX IMVI melanoma | TGI | 3.24 µM |
| C/C(=N\N=C(\[Se])N1CCN(c2ccccn2)CC1)c1ccccn1 | LOX IMVI melanoma | TGI | 17.6 µM |
| CN(Cc1cnc2nc(N)nc(N)c2n1)c1ccc(C(=O)NCS(=O)(=O)O)cc1 | LOX IMVI melanoma | TGI | > 100 µM |
| CC(=O)C1=C(C)Cn2c(=O)c3ccccc3c(=O)n2C1 | LOX IMVI melanoma | TGI | > 100 µM |
| CC1(C)CCc2cc3c(cc2O1)OCC1c2cc4c(cc2OC31)OCO4 (centres undefined) | LOX IMVI melanoma | TGI | > 100 µM |

Values were extracted from PubChem BioAssay (NCI).
